target: Delta-type opioid receptor (Mus musculus)
assay: Ratio of the IC50 of delta receptor agonist, [D-Ala-2, D-Leu5]-enkephalin in the presence of compound in MVD divided by the control IC50.
Type: functional
quantity.measured: IC50 ratio
Reply with the value as a number alone.

IC50 ratio for "N#CN/C(N)=N/Cc1ccc2[nH]c3c(c2c1)C[C@@]1(O)C2Cc4ccc(O)c5c4[C@@]1(CCN2CC1CC1)[C@H]3O5" is 17.9

IC50 ratio for "CC(=N)NCCc1ccc2[nH]c3c(c2c1)C[C@@]1(O)C2Cc4ccc(O)c5c4[C@@]1(CCN2CC1CC1)[C@H]3O5" is 6.4

IC50 ratio for "N/C(S)=N/c1ccc2[nH]c3c(c2c1)C[C@@]1(O)C2Cc4ccc(O)c5c4[C@@]1(CCN2CC1CC1)[C@H]3O5" is 1.3

IC50 ratio for "CN1CC[C@]23c4c5ccc(O)c4O[C@H]2c2[nH]c4ccc(NC(=N)N)cc4c2C[C@@]3(O)C1C5" is 1.7

* * *

target: Kappa-type opioid receptor (Cavia porcellus)
assay: Opioid receptor kappa 1 Antagonism (100 nM) is expressed as (Ke = [antagonist] / (IC50 ratio -1)
Type: functional
Exercise: for every item that follows, state its recorded Ke.
Note: unit nM is implicit; provide only the numeric part.

Ke for "CC(=N)NCc1ccc2[nH]c3c(c2c1)C[C@@]1(O)C2Cc4ccc(O)c5c4[C@@]1(CCN2CC1CC1)[C@H]3O5" is 6.1

Ke for "NCc1ccc2[nH]c3c(c2c1)C[C@@]1(O)C2Cc4ccc(O)c5c4[C@@]1(CCN2CC1CC1)[C@H]3O5" is 34

Ke for "C[N+](C)(C)c1ccc2[nH]c3c(c2c1)C[C@@]1(O)C2Cc4ccc(O)c5c4[C@@]1(CCN2CC1CC1)[C@H]3O5" is 3.1

Ke for "N/C(S)=N/c1ccc2[nH]c3c(c2c1)C[C@@]1(O)C2Cc4ccc(O)c5c4[C@@]1(CCN2CC1CC1)[C@H]3O5" is 7.2

Ke for "N=C(N)/N=C(\N)Nc1ccc2[nH]c3c(c2c1)C[C@@]1(O)C2Cc4ccc(O)c5c4[C@@]1(CCN2CC1CC1)[C@H]3O5" is 0.2

* * *

target: Opioid receptors; delta & kappa (Homo sapiens) (UniProt P41145+P41143)
Sequence (P41143 whole entry, looked up): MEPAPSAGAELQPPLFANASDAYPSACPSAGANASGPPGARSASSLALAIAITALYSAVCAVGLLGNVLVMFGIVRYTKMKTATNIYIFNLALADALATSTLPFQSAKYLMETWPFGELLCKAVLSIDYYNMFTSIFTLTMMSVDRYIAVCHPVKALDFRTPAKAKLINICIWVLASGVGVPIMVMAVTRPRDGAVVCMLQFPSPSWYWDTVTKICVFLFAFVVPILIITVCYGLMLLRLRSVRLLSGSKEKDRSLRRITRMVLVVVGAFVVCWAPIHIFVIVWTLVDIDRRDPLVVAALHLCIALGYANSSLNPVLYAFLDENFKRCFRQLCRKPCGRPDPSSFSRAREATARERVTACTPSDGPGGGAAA
Sequence (P41145 whole entry, looked up): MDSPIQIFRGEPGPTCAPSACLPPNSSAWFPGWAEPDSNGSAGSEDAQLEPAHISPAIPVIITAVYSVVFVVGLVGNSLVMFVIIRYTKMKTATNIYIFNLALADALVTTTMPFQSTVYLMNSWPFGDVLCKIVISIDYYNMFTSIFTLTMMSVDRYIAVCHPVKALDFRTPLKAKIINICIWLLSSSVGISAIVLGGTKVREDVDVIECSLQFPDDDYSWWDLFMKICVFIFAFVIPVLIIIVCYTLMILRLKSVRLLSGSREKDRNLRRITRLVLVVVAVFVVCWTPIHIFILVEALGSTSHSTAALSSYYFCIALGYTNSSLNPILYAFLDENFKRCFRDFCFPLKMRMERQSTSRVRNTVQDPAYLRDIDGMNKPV
assay: Selectivity ratio, ratio of binding affinity of delta to kappa opioid receptor
Assay type: protein assay
quantity.measured: Ratio
Reply with the value as a number alone.

Ratio for "N=C(N)NCc1ccc2[nH]c3c(c2c1)C[C@@]1(O)[C@H]2Cc4ccc(O)c5c4[C@@]1(CCN2CC1CC1)[C@H]3O5" is 41

Ratio for "N=C(N)NCCc1ccc2[nH]c3c(c2c1)C[C@@]1(O)[C@H]2Cc4ccc(O)c5c4[C@@]1(CCN2CC1CC1)[C@H]3O5" is 21

Ratio for N=C(N)Nc1ccc2[nH]c3c(c2c1)C[C@@]1(O)[C@H]2Cc4ccc(O)c5c4[C@@]1(CCN2CC1CC1)[C@H]3O5 [GUANIDINONALTRINDOLE] is 257

Ratio for "C[N+](C)(C)Cc1ccc2[nH]c3c(c2c1)C[C@@]1(O)C2Cc4ccc(O)c5c4[C@@]1(CCN2CC1CC1)[C@H]3O5" is 221
